tested on: S. aureus; experiment: Antibacterial activity, MIC by microdilution broth method (CLSI); type: cell-based, Staphylococcus aureus; settings: Staphylococcus aureus, MRSA, clinically isolated MRSA #2334
Record form. Attribute: MIC. Fill in for each entry.

{"columns": ["Compound", "Measured"],
 "data": [
  ["CN[C@H](CC(C)C)C(=O)N[C@H]1C(=O)N[C@@H](CC(N)=O)C(=O)N[C@H]2C(=O)N[C@H]3C(=O)N[C@H](C(=O)N[C@H](C(=O)O)c4cc(O)cc(O)c4-c4cc3ccc4O)[C@H](O)c3ccc(c(Cl)c3)Oc3cc2cc(c3O[C@@H]2O[C@H](CO)[C@@H](O)[C@H](O)[C@H]2O[C@H]2C[C@](C)(N)[C@H](O)[C@H](C)O2)Oc2ccc(cc2Cl)[C@H]1O [Vancomycin]", "2 µg/mL"]
]}

Please state MIC for every compound in the list that follows.
1. C[C@H]1COc2c(N3CCN(C)CC3)c(F)cc3c(=O)c(C(=O)O)cn1c23 [Levofloxacin]
2. CC1(C)S[C@@H]2[C@H](NC(=O)[C@H](N)c3ccccc3)C(=O)N2[C@H]1C(=O)O [Ampicillin]
3. CCCCCCCCCCCCCCCC(=O)O[C@@H]1C[C@@H]2CN(C1)[C@H](C(=O)O)[C@@H]([C@H]1O[C@@H](n3ccc(=O)[nH]c3=O)[C@H](O)[C@@H]1O)O[C@@H]1O[C@H](CN2)[C@@H](O)[C@H]1O [SPM-3]

Found:
1. > 32 µg/mL
2. 16 µg/mL
3. > 64 µg/mL

###

tested on: E. faecalis; assay: Antibacterial activity, MIC by microdilution broth method (CLSI); assay type: cell-based; conditions: Enterococcus faecalis, clinically isolated E. faecalis strain 24
Task for the reader: assign each of the following compounds its reported MIC.
Give bare numbers, in µg/mL.

Some entries whose results are on file:
{"columns": ["Smiles repr", "Assay system", "MIC / µg/mL"],
 "data": [
  ["C[C@H]1COc2c(N3CCN(C)CC3)c(F)cc3c(=O)c(C(=O)O)cn1c23", "E. faecalis", 1],
  ["CCCCCCCCCCCCCCCC(=O)O[C@@H]1C[C@@H]2CN(C1)[C@H](C(=O)O)[C@@H]([C@H]1O[C@@H](n3ccc(=O)[nH]c3=O)[C@H](O)[C@@H]1O)O[C@@H]1O[C@H](CN2)[C@@H](O)[C@H]1O", "E. faecalis", 1],
  ["CC1(C)S[C@@H]2[C@H](NC(=O)[C@H](N)c3ccccc3)C(=O)N2[C@H]1C(=O)O", "E. faecalis", 0.5]
]}

Now examine the next entry.
Lookup: Which MIC reading was recorded for the compound CN[C@H](CC(C)C)C(=O)N[C@H]1C(=O)N[C@@H](CC(N)=O)C(=O)N[C@H]2C(=O)N[C@H]3C(=O)N[C@H](C(=O)N[C@H](C(=O)O)c4cc(O)cc(O)c4-c4cc3ccc4O)[C@H](O)c3ccc(c(Cl)c3)Oc3cc2cc(c3O[C@@H]2O[C@H](CO)[C@@H](O)[C@H](O)[C@H]2O[C@H]2C[C@](C)(N)[C@H](O)[C@H](C)O2)Oc2ccc(cc2Cl)[C@H]1O ?
Found: 1

###

system: E. faecalis; assay: Antibacterial activity, MIC by microdilution broth method (CLSI); type: cell-based; conditions: Enterococcus faecalis, clinically isolated E. faecalis strain 21
Provide the reported MIC of each item.
One number for each entry, in µg/mL.

{"columns": ["Smiles repr", "MIC / µg/mL"],
 "data": [
  ["CN[C@H](CC(C)C)C(=O)N[C@H]1C(=O)N[C@@H](CC(N)=O)C(=O)N[C@H]2C(=O)N[C@H]3C(=O)N[C@H](C(=O)N[C@H](C(=O)O)c4cc(O)cc(O)c4-c4cc3ccc4O)[C@H](O)c3ccc(c(Cl)c3)Oc3cc2cc(c3O[C@@H]2O[C@H](CO)[C@@H](O)[C@H](O)[C@H]2O[C@H]2C[C@](C)(N)[C@H](O)[C@H](C)O2)Oc2ccc(cc2Cl)[C@H]1O", 1],
  ["CC1(C)S[C@@H]2[C@H](NC(=O)[C@H](N)c3ccccc3)C(=O)N2[C@H]1C(=O)O", 1],
  ["CCCCCCCCCCCCCCCC(=O)O[C@@H]1C[C@@H]2CN(C1)[C@H](C(=O)O)[C@@H]([C@H]1O[C@@H](n3ccc(=O)[nH]c3=O)[C@H](O)[C@@H]1O)O[C@@H]1O[C@H](CN2)[C@@H](O)[C@H]1O", 0.5]
]}

Let's switch to this molecule now.
Lookup: Report MIC for C[C@H]1COc2c(N3CCN(C)CC3)c(F)cc3c(=O)c(C(=O)O)cn1c23 please.
Found: 0.5

###

test system: S. aureus; test: Antibacterial activity, MIC by microdilution broth method (CLSI); format: cell-based, Staphylococcus aureus; settings: Staphylococcus aureus, MRSA, clinically isolated MRSA #2071
Give measured MIC for each item. Keep answers brief.
One number for each entry, in µg/mL.

Examples with answers:
{"columns": ["Smiles repr", "MIC, µg/mL"],
 "data": [
  ["CN[C@H](CC(C)C)C(=O)N[C@H]1C(=O)N[C@@H](CC(N)=O)C(=O)N[C@H]2C(=O)N[C@H]3C(=O)N[C@H](C(=O)N[C@H](C(=O)O)c4cc(O)cc(O)c4-c4cc3ccc4O)[C@H](O)c3ccc(c(Cl)c3)Oc3cc2cc(c3O[C@@H]2O[C@H](CO)[C@@H](O)[C@H](O)[C@H]2O[C@H]2C[C@](C)(N)[C@H](O)[C@H](C)O2)Oc2ccc(cc2Cl)[C@H]1O", 1],
  ["CC1(C)S[C@@H]2[C@H](NC(=O)[C@H](N)c3ccccc3)C(=O)N2[C@H]1C(=O)O", 32]
]}

Report MIC for each item below.
1. C[C@H]1COc2c(N3CCN(C)CC3)c(F)cc3c(=O)c(C(=O)O)cn1c23
2. CCCCCCCCCCCCCCCC(=O)O[C@@H]1C[C@@H]2CN(C1)[C@H](C(=O)O)[C@@H]([C@H]1O[C@@H](n3ccc(=O)[nH]c3=O)[C@H](O)[C@@H]1O)O[C@@H]1O[C@H](CN2)[C@@H](O)[C@H]1O

Found:
[0.13, 16]
